Biological target: binding of recombinant, trimeric SARS-CoV-2 spike protein to recombinant human ACE2 (Severe acute respiratory syndrome coronavirus 2, UniProt P0DTC2, K986P/R682G/R683S/R685S/V987P)
Experiment: biochemical
Set-up: species or system SARS-CoV-2 / human
Numbered stars: 1 amine (or outer) side, 2 acyl side, 3 side chain; on linkers, the order of the positions; unused ones are H or OH. Bridge positions count the residues as written; N and C are the ends. Square brackets hold non-standard residues; d marks the D form. Peptide text beside a SMILES is read from it. * marks the point of attachment. Orn(4R-OH,5R-OH) = O=C([C@H](C[C@@H](O)[C@@H](O)N[*:3])N[*:1])[*:2]; Tetradecanoyl(10R,12S-Me2) = CC[C@H](C)C[C@H](C)CCCCCCCCC(=O)*; hTyr(3S-OH,4S-OH) = N[C@H](C(=O)O)[C@H](O)[C@@H](O)c1ccc(O)cc1; Gln(3R-OH) = NC(=O)C[C@@H](O)[C@H](N)C(=O)O; Pro(3S-OH) = O=C(O)[C@H]1NCC[C@@H]1O; Hyp = O=C(O)[C@@H]1C[C@@H](O)CN1
property: % Inhibition (%)
Entry rule: numbers only, all in %.

- molecule: "Cc1ccc(-c2cc(C(F)(F)F)nn2-c2ccc(S(N)(=O)=O)cc2)cc1 [Celecoxib]"
  property: "% Inhibition"
  numeric-value: 93
- molecule: "CO[C@H]1C[C@@H]2CC[C@@H](C)[C@@](O)(O2)C(=O)C(=O)N2CCCC[C@H]2C(=O)O[C@H]([C@H](C)C[C@@H]2CC[C@H](n3cnnn3)[C@H](OC)C2)CC(=O)[C@H](C)/C=C(\\C)[C@@H](O)[C@@H](OC)C(=O)[C@H](C)C[C@H](C)/C=C/C=C/C=C/1C [Zotarolimus(ABT-578), Zotarolimus]"
  property: "% Inhibition"
  numeric-value: 96
- molecule: "CO[C@H]1C(=O)[C@]2(C)[C@@H](OC)C[C@H]3OC[C@@]3(OC(C)=O)[C@H]2[C@H](OC(=O)c2ccccc2)[C@]2(O)C[C@H](OC(=O)[C@H](O)[C@@H](NC(=O)OC(C)(C)C)c3ccccc3)C(C)=C1C2(C)C [Cabazitaxel]"
  property: "% Inhibition"
  numeric-value: 86
- molecule: "CO[C@H]1C[C@@H]2CC[C@@H](C)[C@@](O)(O2)C(=O)C(=O)N2CCCC[C@H]2C(=O)O[C@H]([C@H](C)C[C@@H]2CC[C@@H](OC(=O)C(C)(CO)CO)[C@H](OC)C2)CC(=O)[C@H](C)/C=C(\\C)[C@@H](O)[C@@H](OC)C(=O)[C@H](C)C[C@H](C)/C=C/C=C/C=C/1C [Temsirolimus (CCI-779, NSC 683864), Temsirolimus]"
  property: "% Inhibition"
  numeric-value: 96
- molecule: "COC(=O)N[C@H](C(=O)N1CCC[C@H]1c1nc(-c2ccc3c(c2)O[C@@H](c2ccccc2)n2c-3cc3cc(-c4c[nH]c([C@@H]5CCCN5C(=O)[C@@H](NC(=O)OC)C(C)C)n4)ccc32)c[nH]1)C(C)C [Elbasvir]"
  property: "% Inhibition"
  numeric-value: 100

## Task Using known records, supply % Inhibition for CC[C@H](C)C[C@H](C)CCCCCCCCC(=O)N[C@H]1C[C@@H](O)[C@@H](O)NC(=O)[C@@H]2[C@@H](O)CCN2C(=O)[C@H]([C@H](O)CC(N)=O)NC(=O)[C@H]([C@H](O)[C@@H](O)c2ccc(O)cc2)NC(=O)[C@@H]2C[C@@H](O)CN2C(=O)[C@H]([C@@H](C)O)NC1=O [Pneumocandin B0] ({Tetradecanoyl(10R,12S-Me2)}-[Orn(4R-OH,5R-OH)]T[Hyp][hTyr(3S-OH,4S-OH)][Gln(3R-OH)][Pro(3S-OH)]; lactam 1-C)
## Result 98

## Task Using known records, supply % Inhibition for C[C@@H]1C[C@H]2[C@@H]3CCC4=CC(=O)C=C[C@]4(C)[C@@]3(Cl)[C@@H](O)C[C@]2(C)[C@@]1(OC(=O)c1ccco1)C(=O)CCl [Mometasone furoate]
## Result 98

----------
Target: binding of recombinant, trimeric SARS-CoV-2 spike protein to recombinant human ACE2 (Severe acute respiratory syndrome coronavirus 2, UniProt P0DTC2, K986P/R682G/R683S/R685S/V987P)
Experiment: biochemical
Set-up: species or system SARS-CoV-2 / human
Structures can show the parent of a compound that is named as a salt.
// reported % Inhibition for each item listed
Entry rule: numbers only, all in %.

Example entries begin here.
- compound: "CC(=O)O[C@@]12CO[C@@H]1C[C@H](O)[C@@]1(C)C(=O)[C@H](O)C3=C(C)[C@@H](OC(=O)[C@H](O)[C@@H](NC(=O)OC(C)(C)C)c4ccccc4)C[C@@](O)([C@@H](OC(=O)c4ccccc4)[C@H]21)C3(C)C [Docetaxel Trihydrate]"
  property: "% Inhibition"
  numeric-value: 95
- compound: "Cc1cn(-c2cc(NC(=O)c3ccc(C)c(Nc4nccc(-c5cccnc5)n4)c3)cc(C(F)(F)F)c2)cn1"
  property: "% Inhibition"
  numeric-value: 99
- compound: "CCCCCCCCN=c1ccn(CCCCCCCCCCn2ccc(=NCCCCCCCC)cc2)cc1 [Octenidine Dihydrochloride]"
  property: "% Inhibition"
  numeric-value: 100

Okay, next one:
## Task Using known records, supply % Inhibition for COc1cc2nccc(Oc3ccc(NC(=O)NC4CC4)c(Cl)c3)c2cc1C(N)=O [Lenvatinib Mesylate]
## Result 94

----------
Molecular target: binding of recombinant, trimeric SARS-CoV-2 spike protein to recombinant human ACE2 (Severe acute respiratory syndrome coronavirus 2, UniProt P0DTC2, K986P/R682G/R683S/R685S/V987P)
Test: biochemical
Set-up: species or system SARS-CoV-2 / human
// reported IC50 for each item listed
Entry rule: numbers only, all in µM.

## Task Using known records, supply IC50 for CN1CCN(c2ccc(C(=O)Nc3n[nH]c4ccc(Cc5cc(F)cc(F)c5)cc34)c(NC3CCOCC3)c2)CC1 [Entrectinib]
## Result 58.4

## Task Using known records, supply IC50 for Cc1ccc(-c2cc(C(F)(F)F)nn2-c2ccc(S(N)(=O)=O)cc2)cc1 [Celecoxib]
## Result 61.5

----------
Target: binding of recombinant, trimeric SARS-CoV-2 spike protein to recombinant human ACE2 (Severe acute respiratory syndrome coronavirus 2, UniProt P0DTC2, K986P/R682G/R683S/R685S/V987P)
Assay: biochemical
Design: species or system SARS-CoV-2 / human
Structures can show the parent of a compound that is named as a salt.
property: % Inhibition (%)
Entry rule: numbers only, all in %.

- compound: "N#Cc1nn(-c2c(Cl)cc(C(F)(F)F)cc2Cl)c(N)c1[S+]([O-])C(F)(F)F (centres unmarked)"
  numeric-value: 91
- compound: "CO/N=C(\\C(=O)N[C@@H]1C(=O)N2C(C(=O)OCOC(=O)C(C)(C)C)=C(/C=C\\c3scnc3C)CS[C@H]12)c1csc(N)n1"
  numeric-value: 96
- compound: "O=C(O)c1cn(C2CC2)c2cc(N3CCNCC3)c(F)cc2c1=O [Ciprofloxacin Hydrochloride Hydrate]"
  numeric-value: 93

## Task Using known records, supply % Inhibition for C=C(NC(=O)C(=C)NC(=O)c1csc(C2=N[C@@H]3c4csc(n4)[C@H]4NC(=O)c5csc(n5)[C@H]([C@](C)(O)[C@@H](C)O)NC(=O)[C@H]5CSC(=N5)/C(=C/C)NC(=O)[C@H]([C@@H](C)O)NC(=O)c5csc(n5)[C@]3(CC2)NC(=O)[C@H](C)NC(=O)C(=C)NC(=O)[C@H](C)NC(=O)[C@H]([C@@H](C)CC)N[C@@H]2C=Cc3c([C@H](C)O)cc(nc3[C@H]2O)C(=O)O[C@@H]4C)n1)C(N)=O
## Result 99

## Task Using known records, supply % Inhibition for CN1CCc2nc(C(=O)N[C@@H]3C[C@@H](C(=O)N(C)C)CC[C@@H]3NC(=O)C(=O)Nc3ccc(Cl)cn3)sc2C1
## Result 95

## Task Using known records, supply % Inhibition for CN(C)c1ccc(C(=C2C=CC(=[N+](C)C)C=C2)c2ccc(N(C)C)cc2)cc1
## Result 98

## Task Using known records, supply % Inhibition for CC[C@@]1(O)C(=O)OCc2c1cc1n(c2=O)Cc2cc3cc(O)ccc3nc2-1 [S-(10)-hydroxycamptothecin, (S)-10-Hydroxycamptothecin]
## Result 100

## Task Using known records, supply % Inhibition for Nc1nc(N)c2nc(-c3ccccc3)c(N)nc2n1
## Result 91

## Task Using known records, supply % Inhibition for CO[C@H]1C[C@H](O[C@H]2[C@H](C)O[C@@H](O[C@@H]3/C(C)=C/C[C@@H]4C[C@@H](C[C@]5(C=C[C@H](C)[C@@H](C6CCCCC6)O5)O4)OC(=O)[C@@H]4C=C(C)[C@@H](O)[C@H]5OC/C(=C\C=C\[C@@H]3C)[C@]54O)C[C@@H]2OC)O[C@@H](C)[C@@H]1O
## Result 96

## Task Using known records, supply % Inhibition for Cn1cncc1[C@@](N)(c1ccc(Cl)cc1)c1ccc2c(c1)c(-c1cccc(Cl)c1)cc(=O)n2C
## Result 98

## Task Using known records, supply % Inhibition for CO[C@H]1C[C@@H]2CC[C@@H](C)[C@@](O)(O2)C(=O)C(=O)N2CCCC[C@H]2C(=O)O[C@H]([C@H](C)C[C@@H]2CC[C@@H](OCCO)[C@H](OC)C2)CC(=O)[C@H](C)/C=C(\C)[C@@H](O)[C@@H](OC)C(=O)[C@H](C)C[C@H](C)/C=C/C=C/C=C/1C [Everolimus (RAD001), Everolimus]
## Result 94
